Numbers sourced from the RNAGym collection of RNA variant scans (doi:10.7554/elife.90254).

B1: LINE1-full (parent)
chain: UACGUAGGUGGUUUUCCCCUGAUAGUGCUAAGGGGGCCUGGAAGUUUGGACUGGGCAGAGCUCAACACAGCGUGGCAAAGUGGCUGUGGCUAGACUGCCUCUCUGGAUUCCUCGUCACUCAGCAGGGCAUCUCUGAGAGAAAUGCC

Variants of: B1
assay.text: self-cleavage, relative activity (ratio to wild type); higher = more cleavage; in vitro, sequencing; the parent is a self-cleaving ribozyme
Quick list: self-cleavage per entry.
Note: the reply should be a number with no unit written.

Answered examples (3):
- polymer.sequence: "UACGUAGGUGGUUUUCCCCUGAUAGUGCUAAGGGAGCCUGGAAGUUUGGACUGGGCAGAGCUCAACACAGCGUGGCAAAGUGGCUGUGGCUAGACUGCCUCUCUGGAUUCCUCGUCACUCAGCAGGGCUUCUCUGAGAGAAAUGCC [G35A A129U]"
  self-cleavage: 1.62
- polymer.sequence: "UACGUAGGUGGUUUUCCCCUGAUGGUGCUAAGGGGGCCUGGAAGUUUGGACUGGGCAGAGCUCAACACAGCGUGGCAAAGUGGCUGUGGCUAGACUGCCUCUCUGGAUUCCUCGUCACUCAGCAGGGCAUCUCUGAGAGGAAUGCC [A24G A140G]"
  self-cleavage: 1.68
- polymer.sequence: "UACGUAGGUGGUUUUCCCCUGAUAGUGCUAAGGGGGCCUGGAAGUUUGGACUGGGCAGAGCUCGACACAGCGUGGCAAAGUGGCUGUGGCUAGACUGCCUCUCUGGAUUCCUCGUCACUCAGCAGGGCAUCUCUGAGAGAAAUGCU [A64G C146U]"
  self-cleavage: 0.24

variant UACGUGGGUGGUUUUCCCCUGAUAGUGCUAAGGGGGCCUGGAAGUCUGGACUGGGCAGAGCUCAACACAGCGUGGCAAAGUGGCUGUGGCUAGACUGCCUCUCUGGAUUCCUCGUCACUCAGCAGGGCAUCUCUGAGAGAAAUGCC [A6G U46C] , self-cleavage observed: 0.8
